Target: human TLR7 (Homo sapiens, UniProt Q9NYK1)
Sequence (Q9NYK1 27-1049): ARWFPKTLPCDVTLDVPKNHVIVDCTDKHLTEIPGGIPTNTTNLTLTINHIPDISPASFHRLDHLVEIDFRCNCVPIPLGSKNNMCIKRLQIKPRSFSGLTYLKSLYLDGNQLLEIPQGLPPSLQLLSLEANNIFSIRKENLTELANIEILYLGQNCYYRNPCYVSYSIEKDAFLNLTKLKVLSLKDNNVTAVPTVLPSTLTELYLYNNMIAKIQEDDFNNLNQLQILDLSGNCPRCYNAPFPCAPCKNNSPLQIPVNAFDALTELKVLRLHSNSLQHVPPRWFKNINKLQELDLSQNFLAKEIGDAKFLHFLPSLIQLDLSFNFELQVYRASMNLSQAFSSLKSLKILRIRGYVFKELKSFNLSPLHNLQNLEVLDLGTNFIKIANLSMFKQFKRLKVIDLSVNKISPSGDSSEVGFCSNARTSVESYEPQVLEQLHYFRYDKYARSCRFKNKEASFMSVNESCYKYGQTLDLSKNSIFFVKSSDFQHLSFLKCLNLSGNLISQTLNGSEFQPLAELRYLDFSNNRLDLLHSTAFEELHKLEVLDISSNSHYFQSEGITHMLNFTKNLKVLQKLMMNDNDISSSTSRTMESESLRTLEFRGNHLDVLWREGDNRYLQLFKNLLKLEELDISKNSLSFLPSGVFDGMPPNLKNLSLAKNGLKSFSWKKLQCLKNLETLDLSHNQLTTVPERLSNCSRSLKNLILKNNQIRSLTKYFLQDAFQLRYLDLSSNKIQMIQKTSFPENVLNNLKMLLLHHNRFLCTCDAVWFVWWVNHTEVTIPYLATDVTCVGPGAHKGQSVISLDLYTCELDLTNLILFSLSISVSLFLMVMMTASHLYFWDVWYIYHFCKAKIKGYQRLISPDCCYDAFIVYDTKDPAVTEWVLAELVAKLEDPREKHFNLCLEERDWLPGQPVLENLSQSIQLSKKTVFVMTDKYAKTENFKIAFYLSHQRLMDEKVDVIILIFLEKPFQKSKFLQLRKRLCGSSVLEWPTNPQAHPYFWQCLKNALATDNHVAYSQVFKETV
Test: HEK293-Blue-hTLR-7 cells assay (SEAP reporter)
Details: active moiety; read-out: potency to active TLR7 in HEK293-hTLR7 assay
Test readout: EC50 (µM)

{"Molecule": "CC[S@@](=N)(=O)c1nc(N)c2[nH]c(=O)n(Cc3ccc(Cl)cc3)c2n1", "Assayed target": "human TLR7 (Homo sapiens, UniProt Q9NYK1)", "Measurement unit": "µM", "Reported value": 0.085}
{"Molecule": "CC[S@@](=N)(=O)c1nc(N)c2[nH]c(=O)n(Cc3ccc(C)cc3)c2n1", "Assayed target": "human TLR7 (Homo sapiens, UniProt Q9NYK1)", "Measurement unit": "µM", "Reported value": 0.11}
{"Molecule": "CC[S@](=N)(=O)c1nc(N)c2[nH]c(=O)n(Cc3ccc(Cl)cc3)c2n1 (single isomer, unassigned)", "Assayed target": "human TLR7 (Homo sapiens, UniProt Q9NYK1)", "Measurement unit": "µM", "Reported value": 0.071}
